Values were extracted from paper PMC8270334.

Measured Ki, listed per entry for reference.
Molecular target: α1-AR
Experiment: radioligand binding, displacement of [3H]prazosin from α1-adrenoreceptors
Settings: rat cerebral cortex, ± SEM

compound	tgt	Ki (nM)
CC1(C)Cc2cccc(OCCN3CCC(NS(=O)(=O)c4cc(Cl)ccc4F)CC3)c2O1 [Compound 8]	α1-AR	1260
CC1(C)Cc2cccc(OCCN3CCC(NS(=O)(=O)c4cncc5ccccc45)CC3)c2O1 [Compound 13]	α1-AR	429
CC1(C)Cc2cccc(OCCN3CCC(NS(=O)(=O)c4ccc(F)cc4)CC3)c2O1 [Compound 6]	α1-AR	761

---

Target: human 5-HT1A receptor (Homo sapiens)
Construct: expressed in transfected cells; host or cells: HEK293
Sequence (P08908 whole entry): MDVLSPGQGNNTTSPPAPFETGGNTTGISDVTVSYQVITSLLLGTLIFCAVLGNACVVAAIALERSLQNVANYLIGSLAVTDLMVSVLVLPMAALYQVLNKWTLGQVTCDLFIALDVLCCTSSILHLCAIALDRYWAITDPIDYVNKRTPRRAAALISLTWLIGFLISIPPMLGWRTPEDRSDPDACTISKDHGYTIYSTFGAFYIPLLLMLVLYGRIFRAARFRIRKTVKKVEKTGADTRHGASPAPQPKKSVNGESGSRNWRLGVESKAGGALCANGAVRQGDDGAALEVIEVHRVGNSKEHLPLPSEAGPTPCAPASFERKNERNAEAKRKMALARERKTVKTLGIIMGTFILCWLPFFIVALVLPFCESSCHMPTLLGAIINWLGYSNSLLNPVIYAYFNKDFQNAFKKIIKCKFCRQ
Test: radioligand binding, [3H]-8-OH-DPAT displacement at 5-HT1AR in HEK293 cells
Settings: HEK-293 cells, ± SEM
// Ki lookup, one value per entry

mol	tgt	Ki
CC1(C)Cc2cccc(OCCN3CCC(NS(=O)(=O)c4cncc5ccccc45)CC3)c2O1	human 5-HT1A receptor (Homo sapiens)	260 nM
CC1(C)Cc2cccc(OCCN3CCC(NS(=O)(=O)c4cc(Cl)ccc4F)CC3)c2O1	human 5-HT1A receptor (Homo sapiens)	260 nM
CC1(C)Cc2cccc(OCCN3CCC(NS(=O)(=O)c4ccc(F)cc4)CC3)c2O1	human 5-HT1A receptor (Homo sapiens)	221 nM
